assay: Chemical hydrolysis in phosphate buffer saline (PBS, pH 7.3); assay type: physicochemical; details: PBS pH 7.3, 37 °C, read-out: PBS pH 7.3 t 1/2 (converted)
Here, each record is paired with measured half-life at 1.9 mM data.

Ask | Find the recorded half-life at 1.9 mM belonging to CCCCCCCCCCCCCCCCCCOP(=O)(O)OP(=O)(O)OP(=O)(O)OC[C@H]1O[C@@H](n2ccc(=O)[nH]c2=O)C[C@@H]1F [20e, γ‐C18‐FddUTP] and report it.
Reply | > 83.3 days

Ask | Find the recorded half-life at 1.9 mM belonging to CCCCCCCCCCCCCCCCCCOP(=O)(OCC(CC)CCCC)OP(=O)(O)OP(=O)(O)OC[C@H]1O[C@@H](n2cc(C)c(=O)[nH]c2=O)C[C@@H]1F (stereo partly drawn) [10ew] and report it.
Reply | > 83.3 days

Kindly consider the entry below.
Ask | Find the recorded half-life at 1.9 mM belonging to CCCCCCCCCCCCCCCCCCOP(=O)(OCC(CC)CCCC)OP(=O)(O)OP(=O)(O)OC[C@H]1O[C@@H](n2cc(Cl)c(=O)[nH]c2=O)C[C@@H]1F (stereo partly drawn) [10dw] and report it.
Reply | > 83.3 days
